Where do the numbers come from? From patent US10059667B2.

Biological target: Human GPR40 (Homo sapiens (Human), UniProt O14842)
Sequence (O14842 whole entry): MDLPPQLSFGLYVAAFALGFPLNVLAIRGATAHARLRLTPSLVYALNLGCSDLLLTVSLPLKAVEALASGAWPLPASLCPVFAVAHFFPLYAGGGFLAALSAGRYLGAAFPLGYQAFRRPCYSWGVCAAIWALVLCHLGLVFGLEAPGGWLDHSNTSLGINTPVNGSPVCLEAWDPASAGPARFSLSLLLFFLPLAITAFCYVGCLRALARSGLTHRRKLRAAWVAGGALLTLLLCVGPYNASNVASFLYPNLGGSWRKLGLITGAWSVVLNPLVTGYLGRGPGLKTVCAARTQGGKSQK
Experiment: FLIPR assay, agonist-induced calcium mobilization in GPR40/CHO NFAT BLA cells
Format: cell-based
Description: Human and mouse GPR40 stable cell-lines were generated in CHO cells stably expressing NFAT BLA (Beta-lactamase). A human GPR40 stable cell-line was generated in HEK cells stably expressing the aequorin expressing reporter. […] FLIPR (Fluorimetric Imaging Plate Reader, Molecular Devices) assays were performed to measure agonist-induced calcium mobilization of the stable clones. […] Fluorescence output was measured using FLIPR. […]
Measured Parameter: EC50 (nM)

1) COc1cccc(C2CC2COc2cccc([C@@H](CC(=O)O)C3CC3)c2)c1 (single isomer, unassigned) [Example 63]; 15
2) O=C(O)C[C@H](c1cccc(OC2CC3(CCN(Cc4cc(C(F)(F)F)ccc4C(F)(F)F)C3)C2)c1)C1CC1 (single isomer, unassigned) [Example 5B]; 113
3) O=C(O)C[C@H](c1cccc(OC2CCCN(Cc3cc(C(F)(F)F)ccc3C(F)(F)F)C2)c1)C1CC1 (stereo partly shown); 7.4
4) Cc1ccc(C(F)(F)F)cc1C(C)N1CC(COc2cccc([C@@H](CC(=O)O)C3CC3)c2)C1 (stereo partly shown); 439
5) O=C(O)C[C@H](c1cccc(OCC2CCN(c3cc(C(F)(F)F)ccc3C(F)(F)F)C2)c1)C1CC1 (stereo partly shown); 129
6) C[C@H](C(=O)O)[C@H](c1cccc(OC2CN(Cc3cc(C(F)(F)F)ccc3C(F)(F)F)C2)c1)C1CC1; 59
7) CC1(COc2cccc([C@@H](CC(=O)O)C3CC3)c2)CN(Cc2cc(C(F)(F)F)ccc2C(F)(F)F)C1; 95
8) CC(c1cc(F)ccc1F)N1CC(COc2cccc([C@@H](CC(=O)O)C3CC3)c2)C1 (stereo partly shown); 480
9) O=C(O)C[C@H](c1cccc(OCC2CN(Cc3c(F)cccc3C(F)(F)F)C2)c1)C1CC1; 389
10) O=C(O)C[C@H](c1cccc(OC2CC3CN(Cc4cc(C(F)(F)F)ccc4C(F)(F)F)CC3C2)c1)C1CC1 (stereo partly shown); 15

I. O=C(O)C[C@H](c1cccc(OC2CCN(Cc3cc(C(F)(F)F)ccc3Cl)C2)c1)C1CC1 (stereo partly shown)
II. CC(Oc1cccc([C@H](C2CC2)[C@H](C)C(=O)O)c1)C1CN(Cc2cc(C(F)(F)F)ccc2C(F)(F)F)C1 (stereo partly shown)
Task: Lowest EC50? choose I or II // respond with label for picked entry
Output: II
